# Tested on: AML-12 hepatocyte cell line
# test description: Glutathione assay (total glutathione, GSH-Glo)
# Format: cell-based, mouse
# particulars: benchmark RTA 402
quantity kind: GSH EC50 Relative to RTA 402 (fold) (Mean ± SD)
Numbers only, in fold.

Consider the worked cases shown below.
# structure smiles string, target, result units, quantitative result
records = [
    ("CC1(C)CC[C@]2(c3nnc(C(F)(F)F)o3)CC[C@]3(C)[C@H](C(=O)C=C4[C@@]5(C)C=C(C#N)C(=O)C(C)(C)[C@@H]5CC[C@]43C)[C@@H]2C1", "AML-12 hepatocyte cell line", "fold", 4.14),
    ("CC1(C)CC[C@]2(c3nc(CF)no3)CC[C@]3(C)[C@H](C(=O)C=C4[C@@]5(C)C=C(C#N)C(=O)C(C)(C)[C@@H]5CC[C@]43C)[C@@H]2C1", "AML-12 hepatocyte cell line", "fold", 0.50),
]

# return GSH EC50 Relative to RTA 402 (fold) (Mean ± SD) for each item in the list
1. CC1(C)CC[C@]2(c3noc(CCN)n3)CC[C@]3(C)[C@H](C(=O)C=C4[C@@]5(C)C=C(C#N)C(=O)C(C)(C)[C@@H]5CC[C@]43C)[C@@H]2C1
2. CC1(C)CC[C@]2(c3nc(CCN)no3)CC[C@]3(C)[C@H](C(=O)C=C4[C@@]5(C)C=C(C#N)C(=O)C(C)(C)[C@@H]5CC[C@]43C)[C@@H]2C1
3. COCCc1nc([C@]23CCC(C)(C)C[C@H]2[C@H]2C(=O)C=C4[C@@]5(C)C=C(C#N)C(=O)C(C)(C)[C@@H]5CC[C@@]4(C)[C@]2(C)CC3)no1

1: 0.54; 2: 0.46; 3: 1.07
